Measured IC50 of individual entries
Target: GIPR (CHO-K1-hGIPR cells) (Homo sapiens, UniProt P48546)
Construct: host or cells: CHO-K1
Sequence (P48546 22-466): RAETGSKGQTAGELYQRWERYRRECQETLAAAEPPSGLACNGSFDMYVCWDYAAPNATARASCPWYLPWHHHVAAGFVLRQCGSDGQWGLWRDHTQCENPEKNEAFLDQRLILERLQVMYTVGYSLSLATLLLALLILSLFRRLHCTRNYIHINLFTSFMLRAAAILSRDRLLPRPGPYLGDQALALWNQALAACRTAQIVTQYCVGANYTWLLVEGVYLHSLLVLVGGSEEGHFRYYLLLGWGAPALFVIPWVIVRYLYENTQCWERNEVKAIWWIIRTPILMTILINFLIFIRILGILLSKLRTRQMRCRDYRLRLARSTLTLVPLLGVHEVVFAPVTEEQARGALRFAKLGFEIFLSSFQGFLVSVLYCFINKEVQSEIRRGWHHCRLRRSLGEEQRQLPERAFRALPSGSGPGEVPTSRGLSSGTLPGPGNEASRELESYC
Experiment: FACS binding assay
Details: competition with 20 nM GIP-057, 4° C., 1 hour, read-out: pIC50 Category (converted)
*1 amine or outer side, *2 acyl side, *3 side chain or, on linkers, in order; H or OH if unused. Where a SMILES comes first, the peptide text is derived from it. Bridges are numbered along the chain shown (N, C = ends). [ ]: non-standard residue; d: D form. Trp(5-Br) = N[C@@H](Cc1c[nH]c2ccc(Br)cc12)C(=O)O; Trp(5-Cl) = N[C@@H](Cc1c[nH]c2ccc(Cl)cc12)C(=O)O; Pyridine(2,6-diCH2) = c1cc(C[*:1])nc(C[*:2])c1; Hyp = O=C(O)[C@@H]1C[C@@H](O)CN1; hSer = N[C@@H](CCO)C(=O)O; Thz = O=C(O)[C@@H]1CSCN1; Thp = NC1(C(=O)O)CCOCC1

• CC[C@H](C)[C@@H]1NC(=O)[C@H](CC(C)C)NC(=O)C2(CCOCC2)NC(=O)[C@@H](NC(=O)[C@@H](CC(C)C)NC(=O)[C@H](CCC(=O)O)NC(=O)[C@@H]2CSCN2C(=O)[C@H](Cc2c[nH]c3ccc(Cl)cc23)NC(=O)[C@H](Cc2c[nH]c3ccccc23)NC(=O)[C@H](CC(=O)O)NC(C)=O)CSCc2cccc(n2)CSC[C@@H](C(N)=O)NC1=O [GIP-222] (Ac-DW[Trp(5-Cl)][Thz]E[dL]C[Thp]LIC-NH2; linker 7-11 via Pyridine(2,6-diCH2)) = < 10 nM

# evaluate next
Q: Could you please provide reported IC50 for CC[C@H](C)[C@@H]1NC(=O)[C@H](CC(C)C)NC(=O)C2(CCOCC2)NC(=O)[C@@H](NC(=O)[C@@H](CC(C)C)NC(=O)[C@H](CCC(=O)O)NC(=O)[C@@H]2C[C@@H](O)CN2C(=O)[C@H](Cc2c[nH]c3ccc(Br)cc23)NC(=O)[C@H](Cc2c[nH]c3ccccc23)NC(=O)[C@H](CCO)NC(C)=O)CSCc2cccc(n2)CSC[C@@H](C(N)=O)NC1=O [GIP-197] (Ac-[hSer]W[Trp(5-Br)][Hyp]E[dL]C[Thp]LIC-NH2; linker 7-11 via Pyridine(2,6-diCH2)) ? Thanks!
Result: < 10 nM
